Where do these numbers come from? They come from paper PMC9090415.

# tgt: P. falciparum apicoplast DNA polymerase (Pf-apPOL) (Plasmodium falciparum, UniProt Q8ILY1)
# Sequence (Q8ILY1 entry or part of it): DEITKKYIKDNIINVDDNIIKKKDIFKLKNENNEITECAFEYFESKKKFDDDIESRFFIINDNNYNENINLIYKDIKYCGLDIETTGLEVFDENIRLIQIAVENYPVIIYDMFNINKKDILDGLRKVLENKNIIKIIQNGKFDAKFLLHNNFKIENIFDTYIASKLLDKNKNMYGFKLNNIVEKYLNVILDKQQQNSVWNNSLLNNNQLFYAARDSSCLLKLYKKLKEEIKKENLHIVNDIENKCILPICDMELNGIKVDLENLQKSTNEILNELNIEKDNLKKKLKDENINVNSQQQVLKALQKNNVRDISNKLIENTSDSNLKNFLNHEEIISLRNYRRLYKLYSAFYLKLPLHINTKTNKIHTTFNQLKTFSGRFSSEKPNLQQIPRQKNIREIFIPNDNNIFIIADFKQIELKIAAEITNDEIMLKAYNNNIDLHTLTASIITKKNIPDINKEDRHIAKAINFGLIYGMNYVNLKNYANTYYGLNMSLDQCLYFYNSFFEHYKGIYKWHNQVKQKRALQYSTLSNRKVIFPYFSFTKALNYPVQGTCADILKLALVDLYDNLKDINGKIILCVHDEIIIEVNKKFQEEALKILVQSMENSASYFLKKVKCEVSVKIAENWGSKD
# measurement description: Fluorescence-based high-throughput DNA polymerase assay (molecular beacon), primary screen and dose-response
# Format: biochemical
# test parameters: DRC-2; concentration 20; 5'
Everything with % inhibition Apo pol 5' lower than 50% is no (0); everything else, including exactly 50%, is yes (1).

compound="O=C(Cn1ccc2c(=O)[nH]ccc21)Nc1ccccc1Cl [Molecule 19, O=C(Cn1ccc2c1cc[nH]c2=O)Nc1ccccc1Cl]" group_label="no (0)"
compound=Oc1cccnc1/N=C/c1cc(I)cc(I)c1O group_label="yes (1)"
compound=CCCN1COc2ccc3c(=O)c(-c4ccccc4)coc3c2C1 group_label="no (0)"
compound=Nc1ncnc(NC2CCCCC2)c1[N+](=O)[O-] group_label="no (0)"
compound=Cc1cc(C)nc(Nc2nc(CC(=O)Nc3nc(-c4ccco4)cs3)cs2)n1 group_label="no (0)"
compound=CCCCCc1c2c(cc(O)c1C(=O)O)OC(=O)c1c(cc(OC)cc1C(=O)CCCC)O2 group_label="no (0)"
compound=COc1ccc(C=C2Oc3c(ccc4c3CN(Cc3ccco3)CO4)C2=O)c(OC)c1 group_label="no (0)"
compound=O=C(Cc1cccs1)N1CCN(c2nc(CN3CCOCC3)cs2)CC1 group_label="no (0)"
compound=Cc1ccc(C2=N/C(=C\c3ccc(I)o3)C(=O)O2)cc1[N+](=O)[O-] group_label="yes (1)"

---

# tgt: P. falciparum apicoplast DNA polymerase (Pf-apPOL) (Plasmodium falciparum)
# measurement description: Fluorescence-based high-throughput DNA polymerase assay (molecular beacon), primary screen and dose-response
# Type: biochemical
# test parameters: DRC-2; 5'; concentration 5
Measured % inhibition Apo pol 5', listed per entry for reference.
readout name: % inhibition Apo pol 5' (%)

compound="COc1ccc(NC(=O)Cn2ccc3c(=O)[nH]ccc32)cc1Cl [Molecule 10, COc1ccc(cc1Cl)NC(=O)Cn1ccc2c1cc[nH]c2=O]" tgt="P. falciparum apicoplast DNA polymerase (Pf-apPOL) (Plasmodium falciparum)" readout_name="% inhibition Apo pol 5'" unit_spec=% quantitative_result=37
compound="O=C(Nc1cccc(C(=O)Nc2ccc(S(=O)(=O)[O-])c3cc(S(=O)(=O)[O-])cc(S(=O)(=O)[O-])c23)c1)Nc1cccc(C(=O)Nc2ccc(S(=O)(=O)[O-])c3cc(S(=O)(=O)[O-])cc(S(=O)(=O)[O-])c23)c1.[Na+].[Na+].[Na+].[Na+].[Na+].[Na+] [Molecule 39]" tgt="P. falciparum apicoplast DNA polymerase (Pf-apPOL) (Plasmodium falciparum)" readout_name="% inhibition Apo pol 5'" unit_spec=% quantitative_result=23

---

# tgt: P. falciparum apicoplast DNA polymerase (Pf-apPOL) (Plasmodium falciparum, UniProt Q8ILY1)
# measurement description: Fluorescence-based high-throughput DNA polymerase assay (molecular beacon), primary screen and dose-response;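 for % inhibition apPOL 180': test concentration in µM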
# Format: biochemical
# test parameters: DRC-1; 180'; concentration 20
Examples of molecules with documented % inhibition apPOL 180' follow.
readout name: % inhibition apPOL 180' (%)

molecule="CSC1=C(C#N)C(=C(C#N)C#N)NC(c2ccccc2)=N1 [Molecule 2, CSc1nc([nH]c(=C(C#N)C#N)c1C#N)c1ccccc1]" readout_name="% inhibition apPOL 180'" unit_spec=% quantitative_result=86.4873
molecule="COc1ccc(NC(=O)Cn2ccc3c(=O)[nH]ccc32)cc1Cl [Molecule 10, COc1ccc(cc1Cl)NC(=O)Cn1ccc2c1cc[nH]c2=O]" readout_name="% inhibition apPOL 180'" unit_spec=% quantitative_result=56.2759
molecule=CCOC(=O)C1=C2c3cc(OC)c(OC)cc3CC(C)(C)N2C(=O)C1=O readout_name="% inhibition apPOL 180'" unit_spec=% quantitative_result=40.1403
molecule=COc1cccc(Oc2c(C(F)(F)F)oc3cc(OC(=O)N(C)C)ccc3c2=O)c1 readout_name="% inhibition apPOL 180'" unit_spec=% quantitative_result=44.974

---

// values below are reported % inhibition Apo pol 10'
# tgt: P. falciparum apicoplast DNA polymerase (Pf-apPOL) (Plasmodium falciparum)
# measurement description: Fluorescence-based high-throughput DNA polymerase assay (molecular beacon), primary screen and dose-response
# Assay type: biochemical
# test parameters: DRC-1; 10'; conc 80
readout name: % inhibition Apo pol 10' (%)

compound="N#CC(C#N)=C1SCN(c2cccc(Cl)c2)CS1 [Molecule 29, N#CC(=C1SCN(CS1)c1cccc(c1)Cl)C#N]" quantitative_result=94.8229
compound="C=CC1=C(C)c2cc3[nH]c(cc4nc(cc5[nH]c(cc1n2)c(C)c5CCC(=O)O)C(CCC(=O)O)=C4C)c(C)c3C=C [Molecule 91]" quantitative_result=90.9627
compound="O=C(O)c1ccc(COc2cc([N+](=O)[O-])cc3cccnc23)cc1 [KU0058403]" quantitative_result=97.3906
compound="COc1ccccc1C1CC(=O)Oc2cc3c(cc21)OCO3 (stereo not shown) [KU0104502]" quantitative_result=93.475
compound="Cc1cc(C)c2c(c1)C1C=CCC1C(c1ccc(C(=O)O)cc1)N2 (stereo not shown) [Molecule 102]" quantitative_result=93.5405
compound="C=CCOc1c(Br)cc(Br)cc1/C=C1\\SC(=N)NC1=O [KU0051640]" quantitative_result=94.2659
compound="COC(=O)c1sc(-c2ccc(C(C)(C)C)cc2)cc1NC(=O)CCC(=O)O [Molecule 87]" quantitative_result=96.2943
compound="CCOc1nc2cccc(C(=O)OC(C)OC(=O)OC3CCCCC3)c2n1Cc1ccc(-c2ccccc2-c2nnn[nH]2)cc1 (stereo not shown) [Molecule 94]" quantitative_result=98.4846
compound="Cc1cccc(NC(=O)Cn2ccc3c(=O)[nH]ccc32)c1C [Molecule 11, O=C(Cn1ccc2c1cc[nH]c2=O)Nc1cccc(c1C)C]" quantitative_result=84.1772
compound="O=C1Nc2ccc(I)cc2C1=Cc1cc(Br)c(O)c(Br)c1 [Molecule 27]" quantitative_result=94.5024

---

Listing: % inhibition ApPOL 90' of selected molecules
# tgt: UniProt:Q8ILY1
# measurement description: Fluorescence-based high-throughput DNA polymerase assay (molecular beacon), primary screen and dose-response
# Format: biochemical
# test parameters: DRC-2, 90', concentration 40
readout name: % inhibition ApPOL 90' (%)

molecule=CN(C)C=C1SCc2ccccc2C1=O tgt=UniProt:Q8ILY1 readout_name="% inhibition ApPOL 90'" quantitative_result=26
molecule=Cc1ncc(CSc2nc(C(C)(C)C)cs2)c(CO)c1O tgt=UniProt:Q8ILY1 readout_name="% inhibition ApPOL 90'" quantitative_result=43
molecule=CN1CC(=Cc2ccco2)C(=O)C(=Cc2ccco2)C1 tgt=UniProt:Q8ILY1 readout_name="% inhibition ApPOL 90'" quantitative_result=50
molecule=CN(C)C=CC(=O)c1ccccn1 tgt=UniProt:Q8ILY1 readout_name="% inhibition ApPOL 90'" quantitative_result=50
molecule=CS(=O)(=O)c1cccc(C(=O)Nc2nnc(-c3ccno3)o2)c1 tgt=UniProt:Q8ILY1 readout_name="% inhibition ApPOL 90'" quantitative_result=21
molecule="O=C(O)CC1SC(c2ccc3c(c2)OCO3)=NC1=O (centres unmarked)" tgt=UniProt:Q8ILY1 readout_name="% inhibition ApPOL 90'" quantitative_result=33
molecule="CCOC(=O)C(NCc1ccco1)(NC(=O)c1ccco1)C(F)(F)F (centres unmarked)" tgt=UniProt:Q8ILY1 readout_name="% inhibition ApPOL 90'" quantitative_result=36
molecule=Cn1nc(C(=O)N2CCc3c(nc4cc(-c5ccccc5)[nH]n4c3=O)C2)c2ccccc21 tgt=UniProt:Q8ILY1 readout_name="% inhibition ApPOL 90'" quantitative_result=55

---

# tgt: P. falciparum apicoplast DNA polymerase (Pf-apPOL) (Plasmodium falciparum, UniProt Q8ILY1)
# measurement description: Fluorescence-based high-throughput DNA polymerase assay (molecular beacon), primary screen and dose-response;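 for % inhibition apPOL 180': test concentration in µM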
# Assay type: biochemical
# test parameters: DRC-1; 180'; concentration 10
readout name: % inhibition apPOL 180' (%)

compound="COc1ccccc1CCC(=O)N1CCc2c(nc3cc(-c4ccccc4)[nH]n3c2=O)C1 [Molecule 7]" unit_spec=% quantitative_result=38
compound="CCCCOC(=O)CCCCCN1C(=O)C(=Cc2ccc(OC)cc2)SC1=S [Molecule 75]" unit_spec=% quantitative_result=23.7615
compound="O=C(CSc1nnc(-c2ccncc2)[nH]1)c1ccc(O)c(O)c1 [Molecule 89]" unit_spec=% quantitative_result=70.7438
compound="O=C(O)c1cccc(N2N=C(C(F)(F)F)/C(=C/c3ccc(-c4ccccc4[N+](=O)[O-])o3)C2=O)c1 [Molecule 100]" unit_spec=% quantitative_result=45.1585

---

# % inhibition apPOL 180' listing for each entry below
# tgt: P. falciparum apicoplast DNA polymerase (Pf-apPOL) (Plasmodium falciparum)
# measurement description: Fluorescence-based high-throughput DNA polymerase assay (molecular beacon), primary screen and dose-response
# Assay type: biochemical
# test parameters: DRC-1; 180'; concentration 10
readout name: % inhibition apPOL 180' (%)

compound=O=C(O)C(=O)Nc1nc(-c2ccc3c(c2)OCCO3)cs1 quantitative_result=10.4775
compound=O=C(Nc1cccc(C(=O)Nc2ccc(S(=O)(=O)[O-])c3cc(S(=O)(=O)[O-])cc(S(=O)(=O)[O-])c23)c1)Nc1cccc(C(=O)Nc2ccc(S(=O)(=O)[O-])c3cc(S(=O)(=O)[O-])cc(S(=O)(=O)[O-])c23)c1.[Na+].[Na+].[Na+].[Na+].[Na+].[Na+] quantitative_result=16.2132
compound=COc1ccc(C(=O)Nc2cccc(-c3nc4ncccc4o3)c2)cc1[N+](=O)[O-] quantitative_result=20.5277
compound=COc1cccc(Oc2c(C(F)(F)F)oc3cc(OC(=O)N(C)C)ccc3c2=O)c1 quantitative_result=43.333
compound=O=C(O)CCS(=O)(=O)c1ccc(-c2ccc(S(=O)(=O)CCC(=O)O)cc2)cc1 quantitative_result=30.5046
compound=Cc1cccc(-c2nnc3ccc(NS(=O)(=O)c4ccc(C)c(C)c4)nn23)c1 quantitative_result=32.359
compound=Cc1ccccc1C(=O)N1CCc2c(nc3cc(-c4ccccc4)[nH]n3c2=O)C1 quantitative_result=20.9007
compound=Cc1cccc2c(C(=O)NC(C)C)cc(N(C)C)nc12 quantitative_result=11.775
compound="OC(C#Cc1ccccc1)c1ccco1 (stereo not drawn)" quantitative_result=55.1933
compound=COc1ccc2c(c1)CCc1c-2nc2ccc(Br)cc2c1C(=O)O quantitative_result=20.2825
compound="CC1=NNC(=O)C1Oc1ccc(Cl)cc1Cl (stereo not drawn)" quantitative_result=-1.598
compound=CCCCC(=O)N1CCc2c(nc3cc(-c4ccccc4Cl)[nH]n3c2=O)C1 quantitative_result=22.1273
compound="CCOC(=O)C(NCc1ccco1)(NC(=O)c1ccco1)C(F)(F)F (stereo not drawn)" quantitative_result=-5.1582
compound=O=[N+]([O-])c1cc2c(cc1CN1CCN(c3cccc(Cl)c3)CC1)OCO2 quantitative_result=2.609
compound=CCCCc1ccc(NC(=O)CSc2nc(O)c(C#N)c(C3CCCCC3)n2)c(C)c1 quantitative_result=46.1044
compound="O=C(Cn1ccc2c(=O)[nH]ccc21)Nc1cccc(Cl)c1 [Molecule 23, O=C(Cn1ccc2c1cc[nH]c2=O)Nc1cccc(c1)Cl]" quantitative_result=31.8886
compound=O=C(NNC(=O)c1ccc(Cl)cc1)C(=O)NNC(=O)c1ccc(Cl)cc1 quantitative_result=45.9729
compound=CCSc1nnc(NC(=O)Cc2csc(NC(=O)c3cnccn3)n2)s1 quantitative_result=-10.4775
